Test system: Listeria monocytogenes
experiment: Antibacterial activity against Listeria monocytogenes ATCC 7644 at 5 mg/ml after 24 hr by disc diffusion method
Assay type: functional
condition.info: ATCC 7644, 24 h, read-out: DIZ
Answer each item with its documented zone of inhibition at 5000 µg/mL.
Answers are plain numbers, in mm.

Batch lookup, zone of inhibition at 5000 µg/mL per entry.
1. CCC1C(C#N)=C(c2ccco2)OC1(c1ccccc1)c1ccccc1 (centres undefined)
2. CCCC1(c2ccccc2)OC(c2cc3ccccc3o2)=C(C#N)C1c1ccccc1 (centres undefined)
3. CCC1C(C#N)=C(c2ccccc2)OC1(c1ccccc1)c1ccccc1 (centres undefined)

Found:
1: 16; 2: 13; 3: 11

The recorded zone of inhibition at 5000 µg/mL for CCCC1(c2ccccc2)OC(c2ccccc2)=C(C#N)C1c1ccccc1 (centres undefined) is 18
